// reported APOE RNA (% UTC) per item
# Test system: human APOE RNA
# ASSAY COMMENT: Dose-dependent inhibition of human APOE RNA in HepG2 cells, electroporation, 50,000 cells per well, RT-PCR normalized to GAPDH (Example 4, Tables 8-10)
# Format: cell-based
# SETTINGS: 33 nM; HepG2, electroporation, 24-hour treatment
Strand notation (5' to 3'): a small letter for the sugar, then the base; units joined by * are phosphorothioate-linked, units joined directly phosphodiester-linked; [ ] holds rarer units or linkages, { } end groups; capitals alone tell only the bases. [ms] = mesyl phosphoramidate linkage; k = constrained ethyl (cEt); [5mC] = 5-methylcytosine; d = 2'-deoxy (DNA)

- SUBSTANCE: "1746789 (k[5mC]*dT[ms]kT*dG[ms]kG*dT[ms]dG[ms]dA[ms]dA[ms]dT*d[5mC]*dT*dT*dT*dA[ms]dT*kT*kA*dA[ms]kA; antisense) [Compound 1746789]"
  STUDY TARGET: "human APOE RNA"
  APOE RNA (% UTC): 84
- SUBSTANCE: "1746796 (k[5mC]*kT*dT[ms]dG[ms]kG*dT[ms]dG[ms]dA[ms]dA[ms]dT*d[5mC]*dT*dT*dT*dA[ms]dT*kT*dA[ms]kA*kA; antisense) [Compound 1746796]"
  STUDY TARGET: "human APOE RNA"
  APOE RNA (% UTC): 128
- SUBSTANCE: "1746803 (k[5mC]*dT[ms]dT[ms]kG*dG[ms]kT*dG[ms]dA[ms]dA[ms]dT*d[5mC]*dT*dT*dT*dA[ms]dT*kT*dA[ms]kA*kA; antisense) [Compound 1746803]"
  STUDY TARGET: "human APOE RNA"
  APOE RNA (% UTC): 84
- SUBSTANCE: "1747053 (k[5mC]*dT[ms]dT[ms]kG*kG*kT*dG[ms]dA[ms]dA[ms]dT*d[5mC]*dT*dT*dT*dA[ms]dT*kT*dA[ms]dA[ms]kA; antisense) [Compound 1747053]"
  STUDY TARGET: "human APOE RNA"
  APOE RNA (% UTC): 124
- SUBSTANCE: "1747050 (k[5mC]*kT*kT*dG[ms]dG[ms]kT*dG[ms]dA[ms]dA[ms]dT*d[5mC]*dT*dT*dT*dA[ms]dT*kT*dA[ms]dA[ms]kA; antisense) [Compound 1747050]"
  STUDY TARGET: "human APOE RNA"
  APOE RNA (% UTC): 115

Every entry's value here was drawn from patent US20250353873A1.
